Provide the recorded growth for the entries that follow.
- Test system: UACC-62 melanoma
- ASSAY REMARKS: NCI-60 one-dose screen, 48 h (100 = growth as untreated, 0 = no growth, -100 = all killed)
- TEST CONTEXT: 10 µM unless noted
This is part of a sample that, as a whole, favours compounds with a hit. Of some 83,000 tested, about 20% had one in any assay.
Give bare numbers, in %.

A selection of reference data follows.
Cn1c(=O)cc2c3c(c(NCCCO)ccc31)C(=O)c1ccccc1-2 40.4
O=C(CSc1nc2sc3c(c2c(=O)n1-c1ccccc1)CCCCC3)N/N=C/c1cccc([N+](=O)[O-])c1 65.9

Record growth per entry; entries follow.
1. Oc1c(Br)cc(Br)c2ccc(Cn3cc(-c4ccccc4C(F)(F)F)nn3)nc12
2. Cc1ccc(C(=O)c2ccc(CC(=O)N/N=C/c3ccccc3O)n2C)cc1

[95.5, 87.2]

Look at this compound and give its reported growth. `CC(=O)c1c(C)nc(SCC(=O)Nc2cccc(O)c2)n1-c1ccc(Cl)cc1`
75.3

====

- Tested on: OVCAR-8 ovarian
- ASSAY REMARKS: NCI-60 one-dose screen, 48 h
- TEST CONTEXT: 10 µM unless noted
About 83,000 compounds went through this panel and 20% of them were active in at least one assay; those are over-represented in the sample as a whole. Calls of active or inactive are those of the source. Rule for the calls: active = growth percent below 10; inactive = the rest.
Returns: one label drawn from 1 (yes) = active, 0 (no) = inactive

// below: answered compounds
COMPOUND	TEST SYSTEM	LABEL
CC(C)=CCC[C@](C)(O)[C@H]1CC[C@]2(C)[C@@H]1CC[C@@H]1[C@@]3(C)C/C(=C/c4ccco4)C(=O)C(C)(C)[C@@H]3CC[C@]12C	OVCAR-8 ovarian	0 (no)
CCC1=C[C@@H]2C[C@]3(C(=O)OC)c4[nH]c5ccccc5c4CC[N@+](CC(=O)Nc4cc5c(cc4OC)N(C)[C@H]4[C@@](O)(C(=O)OC)[C@H](OC(C)=O)[C@]6(CC)C=CCN7CC[C@]54[C@@H]76)(C2)[C@H]13	OVCAR-8 ovarian	0 (no)
COC1=CC(c2ccc[nH]2)=N/C1=C\c1[nH]c(C)c(CC(=O)NCc2ccccc2)c1C	OVCAR-8 ovarian	0 (no)
CN(C)c1ccc(C(=O)OCCCCCCl)cc1	OVCAR-8 ovarian	0 (no)

Assay result, entry `O=C(Nc1cccc(Cl)c1)Nc1cccc(Cn2c(=O)[nH]c3ccc(Oc4ncccn4)cc3c2=O)c1` — outcome?
0 (no)

Assay result, entry COc1cc2c(c(OC)c1OC)CCC(c1cccc(C(=O)Nc3cccc(Cl)c3)c1)O2 (stereo not drawn) — outcome?
0 (no)

Assay result, entry `COc1cc2oc(-c3cccc(NC(=O)c4ccccc4)c3)cc(=O)c2c(OC)c1OC` — outcome?
0 (no)

Assay result, entry N#CC1=C(N)Oc2c(ccc3ccccc23)C1c1ccccc1 (stereo not drawn) — outcome?
1 (yes)

====

- Tested on: SK-OV-3 ovarian
- ASSAY REMARKS: NCI-60 one-dose screen, 48 h (100 = growth as untreated, 0 = no growth, -100 = all killed)
- TEST CONTEXT: 10 µM unless noted
This is part of a sample that, as a whole, favours compounds with a hit. Of some 83,000 tested, about 20% had one in any assay.
Provide the recorded growth for the entries that follow.
Give bare numbers, in %.

COMPOUND	growth, %
COc1ccc(Cc2cnc(NC(=O)c3cc(C)oc3C)s2)cc1	49.1
O=C(Nc1ccc(Oc2cccc(F)c2)c(Cl)c1)c1cccnc1	30
Cc1[nH]c(C(=O)Nc2ccccc2OC2CCNCC2)c(Cl)c1Cl	109
O=c1scc(-c2ccc(C(F)(F)F)cc2)s1	99.3

Record growth per entry; entries follow.
1. CCOC(=O)c1nn(-c2ccc(S(N)(=O)=O)cc2)c2nc(C)cc(=O)n12
2. Cc1cc(N2CCCCC2)cc(C)c1-c1csc(NC(=O)c2ccncc2)n1
3. COc1ccccc1NC(=O)N=Nc1c(O)[nH]c2ccccc12
4. COc1cccc(/C=C2\COc3ccc(O)c(O)c3C2=O)c1
5. O=C1NC(=C(Cl)Cl)/C(=N\S(=O)(=O)NCc2ccccc2)N1

1. 105
2. 62.6
3. 97.8
4. 86.2
5. 97.1

Record growth per entry; entries follow.
1. N#Cc1nc(-c2ccc(Cl)cc2)oc1S(=O)(=O)N1CCN(c2ccc(F)cc2)CC1
2. N#Cc1ccc(O)c(C2=NCC(c3ccccc3)O2)c1 (stereo unspecified)

98.3
45.3

====

- Test system: MDA-MB-435 melanoma
- ASSAY REMARKS: NCI-60 one-dose screen, 48 h
- TEST CONTEXT: 10 µM unless noted
This is part of a sample that, as a whole, favours compounds with a hit. Of some 83,000 tested, about 20% had one in any assay. The source made the active and inactive calls. How the source made its calls: active means growth percent below 10; inactive means the rest.
Returns: one label drawn from yes for active, no for inactive

// below: answered compounds
COMPOUND	LABEL
Cc1nc2sc(C(=O)Nc3cccc(Br)c3)c(N)c2cc1C(O)c1ccccc1 (centres undefined)	yes
Cc1ccc2c(Cn3cc(CSc4nc5ccccc5o4)nn3)cc(=O)oc2c1	no

Assay result, entry `O=C1Nc2ccccc2/C1=C/c1nc2ccccc2c(=O)[nH]1` — outcome?
no

Assay result, entry `Cc1cccc(/C=C2\CN(C(=O)OC(C)(C)C)C/C(=C\c3cccc(C)c3)C2=O)c1` — outcome?
no

Assay result, entry `COc1ccc2c(c1OC)CO[C@@H]2[C@H]1c2c(cc3c(c2OC)OCO3)CCN1S(=O)(=O)c1cn(C)cn1` — outcome?
yes

Assay result, entry `O=S(=O)(Nc1cc(Cl)ccc1Cl)c1ccc(-c2cnc(C3CC3)o2)cc1` — outcome?
yes

Assay result, entry `O=C(COc1ccc(-c2nc3cc(Cl)c(Cl)cc3[nH]2)cc1)N=Nc1c(O)[nH]c2ccc(Cl)cc12` — outcome?
no

Assay result, entry `COCCOc1cc2ncnc(N3CCN(c4cc(S(C)(=O)=O)c(C)cc4Cl)CC3)c2cc1OCCOC` — outcome?
no

Assay result, entry `O=C(CSc1nnc(-c2cnccn2)n1-c1ccccc1)c1ccc(Cl)cc1` — outcome?
no

====

- Test system: 786-0 renal
- ASSAY REMARKS: NCI-60 one-dose screen, 48 h
- TEST CONTEXT: 10 µM unless noted
Compounds without any hit were thinned out: in the full panel of roughly 83,000, 20% have a hit. Activity calls are given as the source filed them. How the source made its calls: active means growth percent below 10; inactive means the rest.
Returns: one label drawn from t (active), f (inactive)

Assay result, entry COc1cc2c(cc1OC)C(C)N(S(N)(=O)=O)CC2 (stereo not given) — outcome?
f

Assay result, entry N#CC1=C(c2ccccc2)Nc2c(c(-c3ccc(Cl)cc3)nn2-c2ccccc2)C12C(=O)Nc1ccc(Cl)cc12 (stereo not given) — outcome?
f

Assay result, entry C1CCC([PH+](C2CCCCC2)C2CCCCC2[PH+](C2CCCCC2)C2CCCCC2)CC1.[Au].[CH-]1CCCCC1C1CCCC[N-]1 (stereo not given) — outcome?
t

Assay result, entry `Ic1ccc(OCCCCn2ccnc2)cc1` — outcome?
f

====

- System: NCI-H226 lung
- ASSAY REMARKS: NCI-60 one-dose screen, 48 h (100 = growth as untreated, 0 = no growth, -100 = all killed)
- TEST CONTEXT: 10 µM unless noted
The panel holds about 83,000 compounds, 20% with a hit somewhere; the sample as a whole holds those more often.
Provide the recorded growth for the entries that follow.
One number for each entry, in %.

A selection of reference data follows.
COMPOUND	UNIT ABBREVIATION	growth
Cc1cc(C(=O)O)c(C)n1-c1cccc(C(=O)O)c1	%	100
Cc1csc(Nc2nc(-c3ccccn3)nc(C(Cl)(Cl)Cl)n2)n1	%	101
CC(C)COc1nc2c(c(=O)n(C)c(=O)n2C)n1C	%	94.5

Record growth per entry; entries follow.
1. c1ccc([P+](c2ccccc2)(c2ccccc2)c2ccc3c4ccc([P+](c5ccccc5)(c5ccccc5)c5ccccc5)c5cccc(c6cccc2c63)c54)cc1
2. COc1ccc(/C=N/C2=C(C#N)C(c3ccccc3)c3ccc4ccccc4c3O2)cc1 (stereo not given)
3. O=C(CSc1nc2sc3c(c2c(=O)n1-c1ccccc1)CCCCC3)N/N=C/c1cccc([N+](=O)[O-])c1
4. CCN1C(=S)N(c2ccccc2)C2NC(=S)N(/N=C/C=C/c3ccccc3OC)C21 (stereo not given)

1. 15.7
2. 51.5
3. 94.4
4. 58

Record growth per entry; entries follow.
1. C=CC(=O)N1CCN(c2cccc(Oc3nccc(Nc4nnc(-c5ccc(Br)cc5)s4)n3)c2)CC1
2. CCOC(=O)n1ccn(C)c1=S
3. COc1ccc2c(c1OC)CO[C@@H]2[C@H]1c2c(cc3c(c2OC)OCO3)CCN1S(=O)(=O)c1cn(C)cn1

1: 88.8; 2: 109; 3: 73.6

====

- Tested on: NCI-H322M lung
- ASSAY REMARKS: NCI-60 one-dose screen, 48 h
- TEST CONTEXT: 10 µM unless noted
About 83,000 compounds went through this panel and 20% of them were active in at least one assay; those are over-represented in the sample as a whole. Activity calls are given as the source filed them. Rule for the calls: active = growth percent below 10; inactive = the rest.
Returns: one label drawn from t (active), f (inactive)

COMPOUND	LABEL
Cc1ccc(/C=C2\COc3ccc(O)cc3C2=O)cc1	f
COC1=CC(c2ccc[nH]2)=N/C1=C\c1[nH]c(C)c(C(=O)OC(C)C)c1C	t
CC(=O)O[C@H]1CC2CCC3C(CC[C@@]4(C)C3C[C@H]([N+]3(C)CCCCC3)[C@@H]4OC(C)=O)[C@@]2(C)C[C@@H]1N1CCCCC1 (stereo not given in full)	f
CC(C)Cn1cnc2c(=O)[nH]c(N)nc21	f
NC(=O)c1c(NC(=O)c2ccc3ccccc3c2)sc2c1CCC(=O)C2	f
COC1=CC(c2ccc[nH]2)=N/C1=C\c1[nH]c(C)c(C)c1CCC(=O)OCc1ccccc1	f

Assay result, entry `Oc1ccc(Cl)cc1/C=N\NC(=S)N/N=C/c1cc(Cl)ccc1O` — outcome?
f

Assay result, entry `COc1ccc(OC)c(/C=N/Nc2ncnc3c2c(C)nn3C)c1` — outcome?
f

Assay result, entry `CCOCCNC1=C(Cl)C(=O)c2ccccc2C1=O` — outcome?
f

Assay result, entry CCC(C)N(CCNc1cc(OC)cc2cccnc12)CC(C)C (stereo not given) — outcome?
f
